Just for reference, the OPERA property sets (Mansouri et al. 2018) is where these values come from.

readout label: log10 vapour pressure (mmHg)
Give bare numbers.

For orientation, consider the following solved cases.
[
  {
    "compound": "C=C(C)C#N",
    "log10 vapour pressure (mmHg)": 1.85
  },
  {
    "compound": "CC(Cl)C(C)Cl (centres undefined)",
    "log10 vapour pressure (mmHg)": 1.39
  },
  {
    "compound": "BrC(Br)C(Br)Br",
    "log10 vapour pressure (mmHg)": -1.7
  }
]

Provide each entry's log10 vapour pressure (mmHg) from the list below.
1. CCCCOC(C)=O
2. CC(C)OC(C)C
3. C#C
4. Clc1ccc(I)cc1
5. CCCBr
6. CCOC(=O)CI

1: 1.06; 2: 2.17; 3: 4.56; 4: -1.23; 5: 2.04; 6: -0.195

----------
Think of 200 °C as a floor: if boiling point stands on it or above, it is condition met; beneath it, condition not met.

Reference set, count: 3
[
  {
    "compound": "COC(C)(C)C",
    "class assignment": "condition not met"
  },
  {
    "compound": "CCC(C(=O)OC)c1ccccc1 (configuration not stated)",
    "class assignment": "condition met"
  },
  {
    "compound": "O=C1CC=CCC1",
    "class assignment": "condition not met"
  }
]

Please tell me: is the compound CCCc1ccc2c(c1)OCO2 at or over 200 °C in terms of boiling point?
condition met

Please tell me: is the compound OCCC1CCCC1 at or over 200 °C in terms of boiling point?
condition not met

Please tell me: is the compound CCOC(=O)C(=O)OCC at or over 200 °C in terms of boiling point?
condition not met

Please tell me: is the compound c1ccc(CN(Cc2ccccc2)Cc2ccccc2)cc1 at or over 200 °C in terms of boiling point?
condition met

Please tell me: is the compound CCC(C)C#N (configuration not stated) at or over 200 °C in terms of boiling point?
condition not met

Please tell me: is the compound CCCCCCCOC(=O)CCCCC at or over 200 °C in terms of boiling point?
condition met

Please tell me: is the compound CCCC(=O)C(=O)OCC at or over 200 °C in terms of boiling point?
condition not met

----------
readout label: melting point (°C)
Answers are plain numbers, in °C.

For orientation, consider the following solved cases.
[
  {
    "compound": "Cc1ccccc1C#N",
    "readout label": "melting point",
    "val": -13.5
  },
  {
    "compound": "OC(Cn1cncn1)(c1ccc(F)cc1)c1ccccc1F (stereo not given)",
    "readout label": "melting point",
    "val": 130
  },
  {
    "compound": "C1CCc2nnnn2CC1",
    "readout label": "melting point",
    "val": 59.5
  },
  {
    "compound": "Nc1ccc(N=O)cc1",
    "readout label": "melting point",
    "val": 174
  },
  {
    "compound": "O=C(O)Cc1cn(-c2ccccc2)nc1-c1ccc(Cl)cc1",
    "readout label": "melting point",
    "val": 150
  },
  {
    "compound": "CCCCCc1cc(O)c2c(c1)OC(C)(C)c1ccc(C)cc1-2",
    "readout label": "melting point",
    "val": 77
  }
]

Provide each entry's melting point from the list below.
1. C1CCC(C(C2CCCCC2)C2CCCCC2)CC1
2. CCCCC(=O)CC
3. FC(=C(F)C(F)(F)F)C(F)(F)F
4. CN(CC(=O)N1CCOCC1)Cc1c(Cl)cccc1NC(=O)c1ccccc1
5. CCCCC(=O)O[C@]1(C(=O)CO)CC[C@H]2[C@@H]3CCC4=CC(=O)CC[C@]4(C)[C@H]3[C@@H](O)C[C@@]21C
6. c1ccc([Se][Se]c2ccccc2)cc1
7. C=CC(C)(C)C(=O)O
8. CCCOc1ccc(C(=O)O)cc1

1: 48; 2: -39; 3: -129; 4: 123; 5: 218; 6: 63.5; 7: -6; 8: 145

Provide each entry's melting point from the list below.
1. Oc1ccc(I)cc1
2. Cc1ccnc(C)c1
3. Oc1ccccc1O
4. OC[C@H]1OC(O)[C@H](O)[C@@H](O)[C@@H]1O (stereo not given in full)
5. CCCCCCCCCCCCCCCCCc1ccccc1
6. C/C=C/CCC

1. 93.5
2. -64
3. 105
4. 133
5. 32
6. -98

----------
API: label(entry) gives Satisfied if the entry's log10 vapour pressure (mmHg) is strictly smaller than -1; on equality or larger values it gives Not satisfied.

[
  {
    "smiles record": "Oc1ccc(Cl)cc1Cl",
    "class assignment": "Satisfied"
  }
]

Quick check: log10 vapour pressure (mmHg) of C=C(C)C(=O)OC under -1?
Not satisfied

Quick check: log10 vapour pressure (mmHg) of CCCCCCCCCCCCCCCC(=O)O under -1?
Satisfied

Quick check: log10 vapour pressure (mmHg) of O=[N+]([O-])c1cccc(C(F)(F)F)c1 under -1?
Not satisfied

Quick check: log10 vapour pressure (mmHg) of NC1=C(Cl)C(=O)c2ccccc2C1=O under -1?
Satisfied

Quick check: log10 vapour pressure (mmHg) of Oc1cc(Cl)cc(Cl)c1Cl under -1?
Satisfied

----------
API: label(entry) gives yes (1) if the entry's melting point is strictly smaller than 100 °C; on equality or larger values it gives no (0).

[
  {
    "smiles record": "CCS(=O)(=O)c1ccc(F)cc1",
    "class assignment": "yes (1)"
  }
]

Quick check: melting point of COC(=O)c1cccc(N)c1 under 100 °C?
yes (1)

Quick check: melting point of OC1CCCC1 under 100 °C?
yes (1)

Quick check: melting point of COC(C)=O under 100 °C?
yes (1)

Quick check: melting point of CC1=C(/C=C/C(C)=C/C=C/C(C)=C/C=C/C=C(C)/C=C/C=C(C)/C=C/C2=C(C)C[C@H](O)CC2(C)C)C(C)(C)CCC1 under 100 °C?
no (0)

Quick check: melting point of Cn1c(=O)c2c(ncn2CN2CCOCC2)n(C)c1=O under 100 °C?
no (0)

Quick check: melting point of CCCCCCCOC(=O)CCCC under 100 °C?
yes (1)

Quick check: melting point of Nc1ccc2ncccc2c1 under 100 °C?
no (0)

Quick check: melting point of C[B]C under 100 °C?
yes (1)

Quick check: melting point of O=[N+]([O-])c1ccc(/C=C/c2cccc(CO)n2)o1 under 100 °C?
no (0)

----------
Think of 80 °C as a floor: if melting point stands on it or above, it is Fulfilled; beneath it, Not fulfilled.

Please tell me: is the compound O=C(O)c1cc(I)c(O)c(I)c1 at or over 80 °C in terms of melting point?
Fulfilled

Please tell me: is the compound NCCS(=O)(=O)O at or over 80 °C in terms of melting point?
Fulfilled

Please tell me: is the compound OCCCCCCCCCO at or over 80 °C in terms of melting point?
Not fulfilled

Please tell me: is the compound Cc1cc(Cl)[nH]n1 at or over 80 °C in terms of melting point?
Fulfilled

Please tell me: is the compound OCC(CO)(CO)CBr at or over 80 °C in terms of melting point?
Not fulfilled

Please tell me: is the compound OCC(O)c1ccccc1 (stereo not given) at or over 80 °C in terms of melting point?
Not fulfilled

Please tell me: is the compound Cc1ccc2[nH]c3ccccc3c2c1 at or over 80 °C in terms of melting point?
Fulfilled

Please tell me: is the compound CCCN(CCC)C(=O)COC(=O)c1ccccc1 at or over 80 °C in terms of melting point?
Not fulfilled

Please tell me: is the compound C[C@]12CC[C@H](O)CC1=CC[C@@H]1[C@@H]2CC[C@]2(C)C(=O)CC[C@@H]12 at or over 80 °C in terms of melting point?
Fulfilled

----------
readout label: boiling point (°C)
One number for each entry, in °C.

[
  {
    "compound": "CNc1ccccn1",
    "boiling point, °C": 200
  }
]

Provide each entry's boiling point from the list below.
1. CC(O)CN(CC(C)O)CC(C)O (configuration not stated)
2. CC1CC(C)NC(C)(C)C1 (configuration not stated)
3. Clc1ccoc1
4. CCOC(=O)c1ccc(F)cc1
5. CCCc1ccc(O)cc1

1. 305
2. 156
3. 80
4. 210
5. 233

----------
readout label: melting point (°C)
Give bare numbers, in °C.

[
  {
    "smiles record": "O=S(=O)(Cl)c1ccccc1",
    "val": 14.5
  },
  {
    "smiles record": "CCC(=O)c1ccccc1",
    "val": 18.6
  }
]

Provide each entry's melting point from the list below.
1. O=C(CCl)N1CCOCC1
2. COc1cc(OC)nc(NC(=O)NS(=O)(=O)c2ncccc2C(F)(F)F)n1
3. Nc1cc(Cl)c(Cl)c(Cl)c1

37
180
99
